test system: MRSA; experiment: MIC and MBC determinations in vitro, MRSA; assay type: cell-based; settings: Staphylococcus aureus, MRSA, 24 h, MRSA clinical isolate, solid medium 24 h; read-out: MBC
experimental.readout: MBC (µg/mL)
Number only, in µg/mL; omit the unit.

Before answering, review these 6 worked examples.
COc1c(N2CCCC(N(C)C)C2)c(F)cc2c(=O)c(C(=O)O)cn(C3CC3)c12 (stereo not shown) | 0.31
COc1c(N2CCCC(N(C)C(C)=O)C2)c(F)cc2c(=O)c(C(=O)O)cn(C3CC3)c12 (stereo not shown) | 0.039
COc1c(N2CCCC(N(C)C(=O)c3ccccc3)C2)c(F)cc2c(=O)c(C(=O)O)cn(C3CC3)c12 (stereo not shown) | 0.313
CC(=O)NC1(c2c(F)cc3c(=O)c(C(=O)O)cn4c3c2OCC4C)CC1 (stereo not shown) | 50
COc1c(N2CCCC(N(C)C(=O)C3CCCC3)C2)c(F)cc2c(=O)c(C(=O)O)cn(C3CC3)c12 (stereo not shown) | 0.625
CCCCCC(=O)N(C)C1CCCN(c2c(F)cc3c(=O)c(C(=O)O)cn(C4CC4)c3c2OC)C1 (stereo not shown) | 0.625

Moving on to another compound below.
Asked: Quick one: give measured MBC for CNC1CCCN(c2c(F)cc3c(=O)c(C(=O)O)cn(C4CC4)c3c2OC)C1 (stereo not shown)
Given back: 0.156

Data provenance: paper PMC9437215
